test system: GL-1 cells; assay: MTT cytotoxicity, GL-1; assay type: cell-based, canine; conditions: Canis lupus familiaris; GL-1, MTT, 72 h, mean ± SD; read-out: IC50 values after 72 h
# IC50 values compiled below
Your answer should be a plain number; it is taken to be in µM.

Reference set (5 entries):
O=c1cc(-c2ccccc2)oc2c(Cl)cc(Cl)cc12 [D5, 6,8-dichloroflavone] | 38.8
O=c1cc(-c2ccc(Cl)cc2)oc2ccccc12 [D3, 4′-chloroflavone] | 35.1
O=c1cc(-c2ccccc2)oc2ccc(Cl)cc12 [D4, 6-chloroflavone] | 62.4
O=c1cc(-c2ccccc2Cl)oc2ccccc12 [D1, 2′-chloroflavone] | 26.5
O=c1cc(-c2cccc(Cl)c2)oc2ccccc12 [D2, 3′-chloroflavone] | 26.5

Next, consider the following compound.
In: I am curious: what IC50 value has been reported for O=c1cc(-c2ccccc2)oc2c(Br)cc(Cl)cc12 [D6, 8-bromo-6-chloroflavone] ?
Out: 47.2

---

system: RDSVS-TCC1, GL-1, CLBL-1, CF2TH cells; test: MTT cytotoxicity, all lines tested except K9NK; type: cell-based, canine; settings: Canis lupus familiaris, 72 h
ASSAY_ENDPOINT: IC50

O=c1cc(-c2cccc(Cl)c2)oc2ccccc12 [D2, 3′-chloroflavone] | ~30 µM
O=c1cc(-c2ccccc2Cl)oc2ccccc12 [D1, 2′-chloroflavone] | ~30 µM

Next, consider the following compound.
In: I am curious: what IC50 value has been reported for `O=c1cc(-c2ccc(Cl)cc2)oc2ccccc12` ?
Out: ~30 µM

---

test: Hemolysis of red blood cells; type: cell-based; settings: human, human red blood cells (erythrocytes), 50 μM, read-out: degree of haemolysis
ASSAY_ENDPOINT: hemolysis at 24 h, 50 µM (%)
Your answer should be a plain number; it is taken to be in %.

In: I am curious: what hemolysis at 24 h, 50 µM value has been reported for O=c1cc(-c2cccc(Cl)c2)oc2ccccc12 [D2, 3′-chloroflavone] ?
Out: 22.7

---

test: Hemolysis of red blood cells; assay type: cell-based; details: human, human red blood cells (erythrocytes), 40 μM, read-out: degree of haemolysis
ASSAY_ENDPOINT: hemolysis at 24 h, 40 µM (%)
Your answer should be a plain number; it is taken to be in %.

In: I am curious: what hemolysis at 24 h, 40 µM value has been reported for O=c1cc(-c2cccc(Cl)c2)oc2ccccc12 [D2, 3′-chloroflavone] ?
Out: 16

---

test: Hemolysis of red blood cells; assay type: cell-based; settings: human, human red blood cells (erythrocytes), 30 μM, read-out: degree of haemolysis
ASSAY_ENDPOINT: hemolysis at 24 h, 30 µM (%)
Your answer should be a plain number; it is taken to be in %.

In: I am curious: what hemolysis at 24 h, 30 µM value has been reported for `O=c1cc(-c2ccccc2)oc2ccc(Cl)cc12` ?
Out: 10.8
